Values compiled from ChEMBL document CHEMBL1135791.

TARGET_OF_ASSAY: 5-hydroxytryptamine receptor 7 (Homo sapiens)
Sequence (P34969 whole entry): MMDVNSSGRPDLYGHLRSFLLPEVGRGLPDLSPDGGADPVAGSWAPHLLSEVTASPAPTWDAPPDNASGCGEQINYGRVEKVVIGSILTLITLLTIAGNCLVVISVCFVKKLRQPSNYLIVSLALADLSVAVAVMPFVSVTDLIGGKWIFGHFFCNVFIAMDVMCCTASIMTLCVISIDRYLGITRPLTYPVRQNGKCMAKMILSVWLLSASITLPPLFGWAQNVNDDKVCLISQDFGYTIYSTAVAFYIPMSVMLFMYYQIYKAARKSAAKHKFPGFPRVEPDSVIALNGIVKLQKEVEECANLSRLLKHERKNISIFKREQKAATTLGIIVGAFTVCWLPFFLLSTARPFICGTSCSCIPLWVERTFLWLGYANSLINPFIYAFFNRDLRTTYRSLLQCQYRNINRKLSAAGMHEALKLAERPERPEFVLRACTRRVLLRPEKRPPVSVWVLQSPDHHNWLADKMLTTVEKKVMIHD
ENDPOINT: pKi
# pKi = -log10(concentration in molar units)

[ask] # value lookup — system 5-hydroxytryptamine receptor 7 (Homo sapiens), readout pKi, item C[C@@H]1C[C@H](C)N1C(=O)[C@@H]1C=C2c3cccc4[nH]cc(c34)CC2N(C)C1 (stereo partly specified)
[reply] 7.92

====

Recorded Ki values for a group of compounds are listed next.
TARGET_OF_ASSAY: 5-hydroxytryptamine receptor 5A (Homo sapiens, UniProt P47898)
Sequence (P47898 whole entry): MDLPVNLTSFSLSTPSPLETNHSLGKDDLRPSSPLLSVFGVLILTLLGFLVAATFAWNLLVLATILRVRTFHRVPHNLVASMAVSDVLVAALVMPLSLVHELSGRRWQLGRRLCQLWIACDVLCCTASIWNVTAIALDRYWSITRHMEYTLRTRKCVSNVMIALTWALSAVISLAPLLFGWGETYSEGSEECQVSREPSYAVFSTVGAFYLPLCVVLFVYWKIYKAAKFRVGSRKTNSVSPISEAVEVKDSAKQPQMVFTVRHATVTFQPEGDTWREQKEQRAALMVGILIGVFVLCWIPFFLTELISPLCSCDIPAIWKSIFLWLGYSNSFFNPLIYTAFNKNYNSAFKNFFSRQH
ASSAY_DETAILS: Binding affinities towards 5-hydroxytryptamine 5A receptor
Note: unit nM is implicit; provide only the numeric part.

C[C@H]1C[C@H](C)N1C(=O)[C@@H]1C=C2c3cccc4[nH]cc(c34)CC2N(C)C1 (some centres not stated): 27

Turning now to a further record.
[ask] I have this compound here, C[C@@H]1C[C@@H](C)N1C(=O)[C@@H]1C=C2c3cccc4[nH]cc(c34)CC2N(C)C1 (some centres not stated) , and I need its recorded Ki.
[reply] 13

====

TARGET_OF_ASSAY: D(2) dopamine receptor (Homo sapiens)
Sequence (P14416 whole entry): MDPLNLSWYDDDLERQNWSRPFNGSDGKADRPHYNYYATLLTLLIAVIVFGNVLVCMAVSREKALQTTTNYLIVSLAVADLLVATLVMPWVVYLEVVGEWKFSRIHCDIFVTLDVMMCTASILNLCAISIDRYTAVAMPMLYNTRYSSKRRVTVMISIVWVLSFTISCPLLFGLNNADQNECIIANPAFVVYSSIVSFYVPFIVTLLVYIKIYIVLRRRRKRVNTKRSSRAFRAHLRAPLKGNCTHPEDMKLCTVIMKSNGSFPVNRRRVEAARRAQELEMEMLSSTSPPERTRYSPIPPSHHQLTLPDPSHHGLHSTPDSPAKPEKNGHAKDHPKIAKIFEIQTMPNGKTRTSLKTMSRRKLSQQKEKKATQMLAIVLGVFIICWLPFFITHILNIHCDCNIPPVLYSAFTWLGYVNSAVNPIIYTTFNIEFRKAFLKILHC
ASSAY_DETAILS: Binding affinity towards Dopamine receptor D2
Listing of recorded pKi by entry.
Kindly note that pKi refers to -log10 of the concentration in mol/L and answer with the value alone.

Here is how some compounds turned out for pKi.
C[C@@H]1C[C@@H](C)N1C(=O)[C@@H]1C=C2c3cccc4[nH]cc(c34)CC2N(C)C1 (stereo partly drawn): 6.48
CCN(CC)C(=O)[C@@H]1C=C2c3cccc4[nH]cc(c34)C[C@H]2N(C)C1 [LYSERGIDE]: 6.92

[ask] Data request, read-out pKi, for C[C@H]1C[C@H](C)N1C(=O)[C@@H]1C=C2c3cccc4[nH]cc(c34)CC2N(C)C1 (stereo partly drawn)
[reply] 6.96

====

TARGET_OF_ASSAY: D(1B) dopamine receptor (Homo sapiens)
Sequence (P21918 whole entry): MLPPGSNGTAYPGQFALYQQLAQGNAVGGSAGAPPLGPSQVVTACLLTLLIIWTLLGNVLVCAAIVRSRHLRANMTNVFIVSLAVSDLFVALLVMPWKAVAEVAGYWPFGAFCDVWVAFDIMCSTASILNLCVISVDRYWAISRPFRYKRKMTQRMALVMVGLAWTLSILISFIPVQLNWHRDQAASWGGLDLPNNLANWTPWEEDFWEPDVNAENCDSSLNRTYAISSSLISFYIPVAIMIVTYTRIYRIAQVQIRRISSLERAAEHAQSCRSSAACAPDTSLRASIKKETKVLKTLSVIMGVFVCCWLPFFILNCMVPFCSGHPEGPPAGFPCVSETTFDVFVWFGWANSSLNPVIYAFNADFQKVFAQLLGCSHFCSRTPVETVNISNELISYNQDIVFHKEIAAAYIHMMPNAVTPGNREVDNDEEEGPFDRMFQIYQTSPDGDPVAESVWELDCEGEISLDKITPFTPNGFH
ENDPOINT: Ki
Write the quantity with the unit trailing the number.

[ask] Form field: Ki recorded for CCN(CC)C(=O)[C@@H]1C=C2c3cccc4[nH]cc(c34)C[C@H]2N(C)C1 [LYSERGIDE] with D(1B) dopamine receptor (Homo sapiens) (enter value)
[reply] 340 nM

====

TARGET_OF_ASSAY: D(4) dopamine receptor (Homo sapiens, UniProt P21917)
Sequence (P21917 whole entry): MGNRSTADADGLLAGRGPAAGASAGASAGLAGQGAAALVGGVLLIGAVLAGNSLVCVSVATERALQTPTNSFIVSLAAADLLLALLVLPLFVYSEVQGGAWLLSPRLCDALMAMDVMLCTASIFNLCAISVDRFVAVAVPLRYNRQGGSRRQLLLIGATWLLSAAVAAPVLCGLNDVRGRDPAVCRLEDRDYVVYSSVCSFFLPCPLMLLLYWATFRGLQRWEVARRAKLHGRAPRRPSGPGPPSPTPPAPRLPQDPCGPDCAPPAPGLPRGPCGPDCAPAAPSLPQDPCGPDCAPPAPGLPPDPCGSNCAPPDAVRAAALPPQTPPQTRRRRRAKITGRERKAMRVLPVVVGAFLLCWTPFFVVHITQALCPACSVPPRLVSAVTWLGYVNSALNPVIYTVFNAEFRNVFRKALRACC
ENDPOINT: pKi
Please treat pKi as minus the base-10 logarithm of the molar concentration.

[ask] GET /values?readout=pKi&system=D(4) dopamine receptor (Homo sapiens, UniProt P21917)&item= CCN(CC)C(=O)[C@@H]1C=C2c3cccc4[nH]cc(c34)C[C@H]2N(C)C1 [LYSERGIDE]
[reply] 7.25

====

TARGET_OF_ASSAY: 5-hydroxytryptamine receptor 5A (Homo sapiens, UniProt P47898)
ASSAY_DETAILS: Binding affinities against 5-hydroxytryptamine 5A receptor
ENDPOINT: Ki (nM)
Report the value in nM with no unit label.

[ask] // lookup Ki for C[C@@H]1C[C@H](C)N1C(=O)[C@@H]1C=C2c3cccc4[nH]cc(c34)CC2N(C)C1 (stereo partly specified)
[reply] 16

====

TARGET_OF_ASSAY: D(3) dopamine receptor (Homo sapiens, UniProt P35462)
Sequence (P35462 whole entry): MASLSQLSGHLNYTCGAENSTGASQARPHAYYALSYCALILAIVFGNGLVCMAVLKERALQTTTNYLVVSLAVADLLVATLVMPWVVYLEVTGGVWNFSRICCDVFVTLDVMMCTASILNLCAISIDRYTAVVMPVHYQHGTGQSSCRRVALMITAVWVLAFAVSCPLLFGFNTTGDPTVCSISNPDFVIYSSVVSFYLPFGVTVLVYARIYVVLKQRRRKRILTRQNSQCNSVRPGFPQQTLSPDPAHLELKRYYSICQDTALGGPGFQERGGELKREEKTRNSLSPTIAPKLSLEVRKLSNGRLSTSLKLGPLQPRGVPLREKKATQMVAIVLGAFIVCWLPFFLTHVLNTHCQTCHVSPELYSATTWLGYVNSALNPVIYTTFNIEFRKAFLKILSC
ASSAY_DETAILS: Binding affinity towards Dopamine receptor D3
ENDPOINT: pKi
Expect pKi as a plain number equal to -log10 of the molar concentration.

[ask] I'm curious: which pKi was measured for CCN(CC)C(=O)[C@@H]1C=C2c3cccc4[nH]cc(c34)C[C@H]2N(C)C1 [LYSERGIDE] tested on D(3) dopamine receptor (Homo sapiens, UniProt P35462)?
[reply] 7.57

====

TARGET_OF_ASSAY: D(2) dopamine receptor (Homo sapiens)
ASSAY_DETAILS: Binding affinity against Dopamine receptor D2
ENDPOINT: pKi
Please treat pKi as minus the base-10 logarithm of the molar concentration.

[ask] Any idea what its pKi is? The compound is C[C@@H]1C[C@H](C)N1C(=O)[C@@H]1C=C2c3cccc4[nH]cc(c34)CC2N(C)C1 (stereo partly specified)
[reply] 7.22

====

TARGET_OF_ASSAY: UniProtKB Q61616
Sequence (Q61616 whole entry): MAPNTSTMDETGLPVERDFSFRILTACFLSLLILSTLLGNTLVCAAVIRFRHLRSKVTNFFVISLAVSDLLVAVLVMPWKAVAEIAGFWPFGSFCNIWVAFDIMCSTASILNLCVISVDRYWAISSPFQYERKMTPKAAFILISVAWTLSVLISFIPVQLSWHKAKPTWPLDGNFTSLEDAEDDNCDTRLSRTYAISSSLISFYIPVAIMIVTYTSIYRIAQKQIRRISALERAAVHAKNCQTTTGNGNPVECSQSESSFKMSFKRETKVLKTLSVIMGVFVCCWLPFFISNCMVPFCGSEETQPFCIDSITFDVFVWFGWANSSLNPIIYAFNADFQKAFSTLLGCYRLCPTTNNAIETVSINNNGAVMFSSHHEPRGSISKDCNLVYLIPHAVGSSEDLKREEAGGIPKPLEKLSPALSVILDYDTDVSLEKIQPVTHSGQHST
ASSAY_DETAILS: Binding affinity against Dopamine receptor D1
ENDPOINT: pKi
Remember the convention: pKi equals -log10 of concentration in molar.

[ask] Item C[C@@H]1C[C@H](C)N1C(=O)[C@@H]1C=C2c3cccc4[nH]cc(c34)CC2N(C)C1 (stereo partly specified) with UniProtKB Q61616 - pKi?
[reply] 6.64

====

TARGET_OF_ASSAY: UniProt P41595
Sequence (P41595 whole entry): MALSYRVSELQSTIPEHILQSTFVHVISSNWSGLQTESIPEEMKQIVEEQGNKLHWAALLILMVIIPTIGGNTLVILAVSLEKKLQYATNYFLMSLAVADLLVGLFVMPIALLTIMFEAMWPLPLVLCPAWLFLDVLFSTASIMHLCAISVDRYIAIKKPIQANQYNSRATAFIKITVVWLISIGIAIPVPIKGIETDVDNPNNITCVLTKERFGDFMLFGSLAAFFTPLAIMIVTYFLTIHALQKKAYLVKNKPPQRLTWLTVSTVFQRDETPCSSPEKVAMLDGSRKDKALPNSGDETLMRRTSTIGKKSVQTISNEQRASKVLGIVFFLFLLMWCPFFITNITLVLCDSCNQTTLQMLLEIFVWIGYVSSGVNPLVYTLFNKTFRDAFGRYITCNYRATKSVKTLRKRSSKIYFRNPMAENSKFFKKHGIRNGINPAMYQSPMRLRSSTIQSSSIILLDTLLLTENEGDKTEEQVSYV
ASSAY_DETAILS: Binding affinities towards 5-hydroxytryptamine 2B receptor
Ki overview
Your answer is read as µM, so omit the unit and give the number.

C[C@@H]1C[C@@H](C)N1C(=O)[C@@H]1C=C2c3cccc4[nH]cc(c34)CC2N(C)C1 (some centres not stated): 0.31

// next entry
[ask] Quick one: Ki of C[C@H]1C[C@H](C)N1C(=O)[C@@H]1C=C2c3cccc4[nH]cc(c34)CC2N(C)C1 (some centres not stated) ?
[reply] 0.027

====

TARGET_OF_ASSAY: 5-hydroxytryptamine receptor 1A (Homo sapiens)
ASSAY_DETAILS: Binding affinity against 5-hydroxytryptamine 1A receptor using [3H]8-OH-DPAT as radioligand
ENDPOINT: Ki (nM)
Record the value in nM, omitting the unit from your answer.

[ask] # get_value(readout='Ki', item= C[C@@H]1C[C@H](C)N1C(=O)[C@@H]1C=C2c3cccc4[nH]cc(c34)CC2N(C)C1 (stereo partly specified) )
[reply] 1.1

====

Attribute: Ki
TARGET_OF_ASSAY: 5-hydroxytryptamine receptor 1A (Homo sapiens)
Sequence (P08908 whole entry): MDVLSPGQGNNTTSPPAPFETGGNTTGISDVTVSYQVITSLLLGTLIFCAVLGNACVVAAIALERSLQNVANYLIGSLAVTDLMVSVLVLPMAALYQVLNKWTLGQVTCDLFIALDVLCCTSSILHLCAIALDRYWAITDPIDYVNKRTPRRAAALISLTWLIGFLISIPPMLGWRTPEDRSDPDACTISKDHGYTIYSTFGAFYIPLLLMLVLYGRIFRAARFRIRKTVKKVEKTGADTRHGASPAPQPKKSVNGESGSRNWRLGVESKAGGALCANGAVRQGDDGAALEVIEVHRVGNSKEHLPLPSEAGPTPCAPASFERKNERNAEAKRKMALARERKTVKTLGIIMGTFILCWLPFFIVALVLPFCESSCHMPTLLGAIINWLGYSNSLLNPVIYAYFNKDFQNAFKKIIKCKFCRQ
ASSAY_DETAILS: Binding affinity towards 5-hydroxytryptamine 1A receptor using [3H]8-OH-DPAT as radioligand
Report only the number, with the unit nM understood.

C[C@@H]1C[C@@H](C)N1C(=O)[C@@H]1C=C2c3cccc4[nH]cc(c34)CC2N(C)C1 (some centres not stated): 6.8

Continue with the next compound.
[ask] Form field: reported Ki of C[C@H]1C[C@H](C)N1C(=O)[C@@H]1C=C2c3cccc4[nH]cc(c34)CC2N(C)C1 (some centres not stated)
[reply] 0.45

====

TARGET_OF_ASSAY: UniProt P35367
Sequence (P35367 whole entry): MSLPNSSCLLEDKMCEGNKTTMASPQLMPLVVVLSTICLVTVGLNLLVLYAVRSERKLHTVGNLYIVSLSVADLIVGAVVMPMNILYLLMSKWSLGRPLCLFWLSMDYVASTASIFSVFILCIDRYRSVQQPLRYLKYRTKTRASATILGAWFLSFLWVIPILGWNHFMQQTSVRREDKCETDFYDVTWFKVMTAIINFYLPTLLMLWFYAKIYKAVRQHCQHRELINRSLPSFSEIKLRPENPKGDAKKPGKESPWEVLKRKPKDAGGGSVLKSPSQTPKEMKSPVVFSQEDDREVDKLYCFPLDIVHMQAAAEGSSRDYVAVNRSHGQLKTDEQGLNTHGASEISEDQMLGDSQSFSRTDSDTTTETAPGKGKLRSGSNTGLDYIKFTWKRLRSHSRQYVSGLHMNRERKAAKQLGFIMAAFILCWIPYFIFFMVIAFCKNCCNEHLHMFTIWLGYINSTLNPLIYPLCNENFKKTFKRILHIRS
ASSAY_DETAILS: Binding affinity towards Histamine H1 receptor
The reader will find reported pKi values listed item by item below.
Here pKi is given on a logarithmic scale as minus log10 of the concentration in mol/L.

C[C@H]1C[C@H](C)N1C(=O)[C@@H]1C=C2c3cccc4[nH]cc(c34)CC2N(C)C1 (some centres not stated): 5.60

Here is another molecule to look at.
[ask] Entry under review: C[C@@H]1C[C@@H](C)N1C(=O)[C@@H]1C=C2c3cccc4[nH]cc(c34)CC2N(C)C1 (some centres not stated) . Reported pKi?
[reply] 5.85

====

TARGET_OF_ASSAY: 5-hydroxytryptamine receptor 6 (Homo sapiens)
Sequence (P50406 whole entry): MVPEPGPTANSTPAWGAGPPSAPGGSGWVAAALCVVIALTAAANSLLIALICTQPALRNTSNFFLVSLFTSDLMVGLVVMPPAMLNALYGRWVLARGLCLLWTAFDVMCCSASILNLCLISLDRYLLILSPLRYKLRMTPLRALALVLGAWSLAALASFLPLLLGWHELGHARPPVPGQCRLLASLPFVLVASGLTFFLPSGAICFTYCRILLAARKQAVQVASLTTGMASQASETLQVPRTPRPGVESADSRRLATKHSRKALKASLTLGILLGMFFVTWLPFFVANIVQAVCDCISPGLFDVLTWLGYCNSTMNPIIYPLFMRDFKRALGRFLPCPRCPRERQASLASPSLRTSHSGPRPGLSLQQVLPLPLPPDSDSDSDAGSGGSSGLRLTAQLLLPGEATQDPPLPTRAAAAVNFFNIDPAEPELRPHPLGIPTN
ASSAY_DETAILS: Binding affinities against 5-hydroxytryptamine 6 receptor
ENDPOINT: pKi
In textbook form, pKi equals minus log to base ten of the concentration in mol/L.

[ask] Returns the measured pKi for the input compound. Input: C[C@@H]1C[C@H](C)N1C(=O)[C@@H]1C=C2c3cccc4[nH]cc(c34)CC2N(C)C1 (stereo partly specified)
[reply] 7.89
